Subject of test: T1, hPD-1 Avi-Tag Biotin (AcroBiosystems PD1-H82E4) (human, UniProt Q15116 25-167, biotin on Avi-Tag)
T1 construct: bought; also called human PD-1
Assay summary: SPR, Ab captured, PD-1 analyte
Parameter measured: koff (s⁻¹)
Dear colleague, please return just the value in s⁻¹, with no unit written.

# Binder, koff / s⁻¹
records = [
    ("z2-XVT458 (antibody, IgG1, V domains shown, full hIgG1; also called XVT458-z2; GH + T071V) VH: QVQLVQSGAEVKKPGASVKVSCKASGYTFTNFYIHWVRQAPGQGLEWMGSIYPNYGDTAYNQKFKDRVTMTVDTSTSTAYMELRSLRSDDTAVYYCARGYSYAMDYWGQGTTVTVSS VL: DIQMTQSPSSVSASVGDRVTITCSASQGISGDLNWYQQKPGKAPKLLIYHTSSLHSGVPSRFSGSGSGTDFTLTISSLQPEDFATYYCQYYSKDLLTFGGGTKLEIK", 0.00124),
    ("XVT458-z2-m1 (antibody, V domains shown, IgG format; also called z2-XVT458-m1; z2_XVT458m1) VH: QVQLVQSGAEVKKPGASVKVSCKASGYTFTNFYIHWVRQAPGQGLEWMGSIYPNYGFTAYNQKFKDRVTMTVDTSTSTAYMELRSLRSDDTAVYYCARGYSYAMDYWGQGTTVTVSS VL: DIQMTQSPSSVSASVGDRVTITCSASQGIWGDLNWYQQKPGKAPKLLIYHTSQLHSDVPSRFSGSGSGTDFTLTISSLQPEDFATYYCQGYSKDLLTFGGGTKLEIK", "3.28e-05"),
]

Task: Would you kindly share the measured koff for XVT458-z2-m6 (antibody, V domains shown, IgG format; also called z2_XVT458m6) VH: QVQLVQSGAEVKKPGASVKVSCKASGYTFTNFYIHWVRQAPGQGLEWMGSIYPNYGITAYNQKFKDRVTMTVDTSTSTAYMELRSLRSDDTAVYYCARGYSYAMDYWGQGTTVTVSS VL: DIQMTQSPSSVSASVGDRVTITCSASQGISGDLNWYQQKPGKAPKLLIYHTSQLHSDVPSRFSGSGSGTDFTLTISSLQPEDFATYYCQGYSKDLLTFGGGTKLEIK ?
Result: 0.000101

Task: Would you kindly share the measured koff for XVT458-z2-m2 (antibody, V domains shown, IgG format; also called z2_XVT458m2) VH: QVQLVQSGAEVKKPGASVKVSCKASGYTFTNFYIHWVRQAPGQGLEWMGRIYPNYGFTAYNQKFKDRVTMTVDTSTSTAYMELRSLRSDDTAVYYCARGYSYAMDYWGQGTTVTVSS VL: DIQMTQSPSSVSASVGDRVTITCSASQGIYGDLNWYQQKPGKAPKLLIYHTSSLHSGVPSRFSGSGSGTDFTLTISSLQPEDFATYYCQAYSKDLLTFGGGTKLEIK ?
Result: 0.00019

The origin of these recorded values is patent US20260207767A1.
